# ASSAYED_TARGET: Bcl-xL (GST-Bcl-xL) (Homo sapiens, UniProt Q07817)
# Sequence (Q07817 whole entry, species assumed): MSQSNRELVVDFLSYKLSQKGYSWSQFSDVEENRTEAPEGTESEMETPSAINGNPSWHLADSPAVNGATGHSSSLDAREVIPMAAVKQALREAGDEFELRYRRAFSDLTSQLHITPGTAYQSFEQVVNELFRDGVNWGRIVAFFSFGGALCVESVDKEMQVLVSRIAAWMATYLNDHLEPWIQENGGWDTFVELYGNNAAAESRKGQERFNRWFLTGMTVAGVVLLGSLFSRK
# EXPERIMENT_DESCRIPTION: TR-FRET binding assay, competition with F-Bak for the Bcl-xL binding site
# MEASUREMENT_SETUP: values listed in the order of Table 1, read-out: TR-FRET assay results (Ki), Bcl-xL
Entries and their measured log10 Ki follow.
Quick note: numbers are log10 of Ki, with nM as the unit.

Guide cases for log10 Ki, answers given:
N#Cc1c(-c2ccc(OCc3ccc(-c4sc(N5CCc6cccc(C(=O)Nc7nc8ccccc8s7)c6C5)nc4C(=O)O)cc3)cc2)n[nH]c1N; 0.60
O=C(Nc1nc2ccccc2s1)c1cccc2c1CN(c1nc(C(=O)O)c(CCCn3cnc4ccccc43)s1)CC2; 0.48
O=C(Nc1nc2ccccc2s1)c1cccc2c1CN(c1nc(C(=O)O)c(CCCN3CCCC3)s1)CC2; 0.60
O=C(Nc1nc2ccccc2s1)c1cccc2c1CN(c1nc(C(=O)O)c(CCCCOc3ccc(-n4ncc5cncnc54)cc3)s1)CC2; 0.70
CN(C)CCCNc1ncnc2c1cnn2-c1ccc(OCCCc2ccc(N3CCc4cccc(C(=O)Nc5nc6ccccc6s5)c4C3)nc2C(=O)O)cc1; -1.30

# input Dear colleague, I am looking for the recorded log10 Ki of the following compound: `Nc1nc2ccccc2n1-c1ccc(OCCCc2sc(N3CCc4cccc(C(=O)Nc5nc6ccccc6s5)c4C3)nc2C(=O)O)cc1`
# output 0.85

###

The reader will find reported log10 of Ki values listed item by item below.
# ASSAYED_TARGET: Bcl-xL (GST-Bcl-xL) (Homo sapiens, UniProt Q07817)
# EXPERIMENT_DESCRIPTION: TR-FRET binding assay, competition with F-Bak for the Bcl-xL binding site
# MEASUREMENT_SETUP: values listed in the order of Table 1, read-out: TR-FRET assay results (Ki), Bcl-xL
Please note: log10 values; quantity Ki; unit pM.

Some solved cases for reference:
O=C(Nc1nc2ccccc2s1)c1cccc2c1CN(c1nc(C(=O)O)c(CCCSc3ccncc3)s1)CC2 [Example 3]; 2.30
O=C(Nc1nc2ccccc2s1)c1cccc2c1CN(c1nc(C(=O)O)c(CCCCn3ccnc3)s1)CC2 [Example 72]; 3.48
N#Cc1c(-c2cccc(OCc3ccc(-c4sc(N5CCc6cccc(C(=O)Nc7nc8ccccc8s7)c6C5)nc4C(=O)O)cc3)c2)n[nH]c1N [Example 37]; 3.60
CN(C)CC#Cc1ccc(OCCCc2sc(N3CCc4cccc(C(=O)Nc5nc6ccccc6s5)c4C3)nc2C(=O)NS(C)(=O)=O)c(F)c1 [Compound 142]; 1.94

# input Write down the reported log10 of Ki of CN1CCN(c2ccc(OCCCc3sc(N4CCc5cccc(C(=O)Nc6nc7ccccc7s6)c5C4)nc3C(=O)O)cc2)CC1 [Example 82] , test system: Bcl-xL (GST-Bcl-xL) (Homo sapiens, UniProt Q07817).
# output 1.70

# input # get_value(readout= log10 of Ki, system= Bcl-xL (GST-Bcl-xL) (Homo sapiens, UniProt Q07817)) for Nc1cccc(OCCCc2sc(N3CCc4cccc(C(=O)Nc5nc6ccccc6s5)c4C3)nc2C(=O)O)c1 [Example 9]
# output 1.85

# input Hello, I am looking for reported log10 of Ki with Bcl-xL (GST-Bcl-xL) (Homo sapiens, UniProt Q07817) for O=C(O)c1csc(N2CCc3cccc(C(=O)Nc4nc5ccccc5s4)c3C2)n1 [Example 1] . Could you help?
# output 4.89

Numbers sourced from patent US8232273B2.
